What Kd was measured for each of the following?
biological target: DLA2 ΔE3B (Chlamydomonas reinhardtii, UniProt A0A2K3DW88 32-184+=VD+224-494, internal_change); experiment: MST
One number for each entry, in nM.

Binder | Endpoint unit | Kd
UUUACGGAGAAAUUAAAACUUUAAAAAAAUUAACAUAUGACCAUGGAUC (ssRNA) [psbA 5'-UTR probe native] | nM | 241

Now let's try a different one.
Ask | Please list Kd recorded for the binder UUUACGGAGAAAUUAAAACUUUCCCCCCCCCCCCAUAUGACCAUGGAUC (ssRNA) [psbA 5'-UTR C-stretch probe]
Reply | 244
